Hello, the source for this data is ChEMBL document CHEMBL1201862, in case you need it.

Tested on: MCF7
protocol notes: NCI tumour cell line growth inhibition, 48 h
Activity calls are given as the source filed them. Rule as the data show it: active = GI50 up to about 1.1 µM and inactive = higher.
Outcomes: T = active, F = inactive

1. Cc1cccc2c(N)c3cccc(C(=O)NCCNCCN)c3nc12	T
2. CSC(=S)NN=C1CCCCC1	F
3. N#Cc1c(N)nc2[nH]nc(N)c2c1-c1ccccc1	F
4. CC(C)(C)OC(=O)/C=C/[C@@H](CCC(=O)/C=C/[C@H](/C=C\CCCC(=O)O)NC1(c2ccccc2)c2ccccc2-c2ccccc21)O[Si](C)(C)C(C)(C)C	F
5. COc1c(-c2cc(C)c(Cl)c(=O)[nH]2)c(O)c(OC)c2occc12	F
6. CCOC(=O)C1CCC(=O)N1C(=O)c1ccccc1 (stereo unspecified)	F
7. N#Cc1cnc(N)nc1NCC1(CO)CC(CCc2ccccc2)C1 (stereo unspecified)	F
8. Cc1ccc2c(c1)C(=O)C1(Cc3ccccc3C1=O)C2 (stereo unspecified)	F
9. COC(=O)c1ccc(C)cc1CC1Cc2cccc(C)c2C1=O (stereo unspecified)	F
10. c1n[nH]cc1C12C3C4C5C3C1C5C42 (stereo unspecified)	F
11. CC1(C)N=[N+]([O-])C1(C)C	F

----------
Test system: SNB-78
protocol notes: NCI tumour cell line growth inhibition, 48 h
Activity calls are given as the source filed them. No stated cut-off is given here; in the data, active = GI50 up to about 1.1 µM and inactive = higher.
measure name: GI50

1) CCOP(=O)(OCC)/C(C#N)=C\c1ccsc1	> 100 µM (inactive)
2) CC1(C)C2CCC3(OCCO3)C1C(O)C2 (configuration not stated)	> 100 µM (inactive)
3) CC1=NN(C(=O)CC(=O)NC(=O)CC(=O)Nc2ccccc2F)C(=O)C1/N=N/c1ccc([N+](=O)[O-])cc1 (configuration not stated)	> 100 µM (inactive)
4) N#CC(NNC(=O)Cc1ccccc1)c1ccccc1O (configuration not stated)	80.5 µM (inactive)
5) O=C1/C(=C/c2ccccc2Cl)COc2ccc(Br)cc21	43.1 µM (inactive)
6) COc1cc2c(cc1OC)C(OC)N(C)c1c-2ccc2cc3c(cc12)OCO3 (configuration not stated)	2.67 µM (inactive)
7) CC(=O)O[C@H]1C(=O)[C@@]2(C)C(C(OC(=O)c3ccccc3)C3[C@@H](O)C(OC(=O)[C@@H](O)[C@H](NC(=O)c4ccccc4)c4ccc(C(F)(F)F)cc4)C(C)=C1C3(C)C)[C@]1(OC(C)=O)CO[C@@H]1C[C@@H]2O (some centres not stated)	> 25 µM (inactive)
8) COC(=O)N/N=C(\C)c1c(O)cc(C)oc1=O	> 100 µM (inactive)
9) O=C(OC[C@H]1O[C@@H](OC(=O)c2cc(O)c(O)c(O)c2)[C@H](OC(=O)c2cc(O)c(O)c(O)c2)[C@@H](OC(=O)c2cc(O)c(O)c(O)c2)[C@@H]1OC(=O)c1cc(O)c(O)c(O)c1)c1cc(O)c(O)c(O)c1	9.51 µM (inactive)
10) COc1ccc(C(=O)C2=NON3OC23C(=O)c2ccc(OC)cc2)cc1 (configuration not stated)	13 µM (inactive)
11) C/C(=N/NC(=O)C(N)=O)C(CC(C(=O)Nc1ccccc1C)/C(C)=N\NC(=O)C(N)=O)C(=O)Nc1ccccc1C (configuration not stated)	> 100 µM (inactive)
12) O=C(Nc1c(O)[nH]c(=S)[nH]c1=O)c1ccccc1F	> 100 µM (inactive)
13) O=C(O)CCCSC(=O)Nc1ccc(/N=N/c2ccccc2)cc1	> 100 µM (inactive)
14) CCCCCCCCCCCCCCCCOC(=O)c1cc(O)cc(C(=O)OCCCCCCCCCCCCCCCC)c1	> 100 µM (inactive)
15) COc1cc2c(c(C)c1O)[C@H]1COc3ccccc3[C@H]1O2	23.4 µM (inactive)
16) O=C1NC2(NC(=O)C1=O)Nc1ccccc1S2	> 67.1 µM (inactive)
17) CCOc1ccc(NC(=O)CCc2nnc(SC)o2)cc1	> 100 µM (inactive)
18) CCCCCCCSCC1C(=O)C23C(O)C1CCC2C12COC3(O)C(O)C1C(C)(C)CCC2O (configuration not stated)	15.3 µM (inactive)
19) O=C(O)\C=C/C=C/C=C/C=C/C(=O)O	> 100 µM (inactive)
20) O=C1C2C3C=C4c5ccccc5N(c5ccccc5)C4(C2C(=O)N1c1ccc(Br)cc1)[C@H]1C(=O)N(c2ccc(Br)cc2)C(=O)[C@@H]31 (some centres not stated)	> 100 µM (inactive)
21) CC(C)(CN1CCCCC1)C(=O)/C=C/c1ccc(Br)cc1	8.07 µM (inactive)
22) C1COCCSC2=C(SCCO1)SC(=C1SC3=C(SCCOCCOCCS3)S1)S2	38 µM (inactive)
23) Cc1cc(Cl)cc2c1NC(=O)C2(O)CC(=O)c1ccc(F)cc1 (configuration not stated)	31.4 µM (inactive)
24) CCCCOC(=O)NC(=O)c1cn(CCCOC(=O)NCCCCCCNC(=O)OCCCn2cc(C(=O)NC(=O)OCCCC)c(=O)[nH]c2=O)c(=O)[nH]c1=O	> 100 µM (inactive)
25) CC1(C)OC(=O)C(=Cc2ccc(O)cc2)C(=O)O1	> 100 µM (inactive)
26) Cc1cc(-c2ccccc2)cc2[n+]1CC=C2.[O-][Cl+3]([O-])([O-])[O-]	> 100 µM (inactive)
27) O=[As]O	12.6 µM (inactive)
28) O=c1nc2sc3ccc4ccccc4c3n2nc1O	70.3 µM (inactive)
29) CC(c1ccccc1)N1O[C@]12CC[C@@]1(C)C(CCCC13OCCO3)C2 (some centres not stated)	20.3 µM (inactive)
30) CCCC/C=C1\CCC(C)(CN(C)C)C1=O (configuration not stated)	> 100 µM (inactive)
31) Cc1ccc(C)c(N2C(=O)C(=O)C(c3nc4ccccc4s3)/C(=N/NC(=O)NN)C2=O)c1 (configuration not stated)	> 100 µM (inactive)
32) COc1ccc(C(=O)C#Cc2cnc(O)nc2O)cc1	16.1 µM (inactive)
